Source: patent US10702528B2

tested on: HBV; assay: HepAD38 antiviral screen: reduction of viral product accumulation (virion DNA by qPCR; HBsAg/HBeAg ELISA); type: cell-based; details: Hepatitis B virus, HePAD38, 120 h, read-out: HepAD38 EC50 (μM)
property-name: EC50

Qu. Note down EC50 recorded for CCOP(=O)(OCC)C1=C(C)NC(c2nccs2)=NC1c1ccc(F)cc1Cl (racemic) [Example 26]
Ans. > 10 µM

* * *

experiment: Compound toxicity by ATPlite 1 Step (total ATP levels) in HepAD38 cells; type: cell-based; details: human, day of harvest, concentration reducing total ATP levels by 50% relative to no drug controls
property-name: CC50

compound	value-measured
CC1=C(c2nccs2)C(c2ccc(F)cc2Cl)N=C(c2nccs2)N1 (racemic)	> 30 µM
CCOC(=O)C1=C(CC2CC(F)(F)C[C@H]2C(=O)O)NC(c2nccs2)=NC1C1CCCC1 (stereo partly shown)	> 30 µM
CC1=C(c2cc(C)no2)C(c2ccc(F)cc2Cl)N=C(c2nccs2)N1 (racemic)	> 30 µM

Qu. Hello, please tell me recorded CC50 for this one: COC(=O)/C=C1\NC(c2nccs2)=NC(c2ccc(F)cc2Cl)C1c1ccn(C)n1 (stereo not shown)
Ans. 10 to 30 µM

* * *

test: Compound toxicity by ATPlite 1 Step (total ATP levels) in HepAD38 cells; assay type: cell-based; conditions: human, day of harvest, concentration reducing total ATP levels by 50% relative to no drug controls
Recorded measurements of CC50, one per entry

Consider the following illustrative entries.
compound	value-measured
Cn1ccc(C2=C(CC#N)NC(c3nccs3)=NC2c2ccc(F)cc2Cl)n1 (stereo not shown) [Example 40]	> 30 µM
CC(=O)C1=C(C)NC(c2nccs2)=NC1c1ccc(F)cc1Cl (racemic) [Example 11]	> 30 µM
Cn1ccc(C2=C(CO)NC(c3nccs3)=NC2c2ccc(F)cc2Cl)n1 (stereo not shown) [Example 41]	10 to 30 µM

Read the next record carefully.
Qu. Consider the compound CC1=C(c2ccccc2)C(c2ccc(F)cc2Cl)N=C(c2nccs2)N1 (racemic) [Example 18] and give its recorded CC50.
Ans. 10 to 30 µM

* * *

Recorded measurements of CC50, one per entry
experiment: Compound toxicity by ATPlite 1 Step (total ATP levels) in HepAD38 cells; type: cell-based; conditions: human, day of harvest, concentration reducing total ATP levels by 50% relative to no drug controls

compound	CC50
CC1=C(c2ccn(C)n2)[C@H](c2ccc(F)cc2Cl)N=C(c2nccs2)N1 (single isomer, unassigned) [Example 16b]	> 30 µM
CC1=C(C(=O)NS(C)(=O)=O)C(c2ccc(F)cc2Cl)N=C(c2nccs2)N1 (racemic)	> 30 µM
CCOC(=O)C1=C(CN2CCC[C@H]2C(=O)NS(C)(=O)=O)NC(c2nccs2)=NC1c1ccc(F)cc1Cl (stereo partly drawn)	10 to 30 µM

Qu. Determine from records and report CC50 for CCOC(=O)C1=C(C)NC(N2CCCC2)=NC1c1ccc(F)cc1Cl (stereo not drawn)
Ans. > 30 µM

Qu. Note down CC50 recorded for CC1=C(c2ncco2)C(c2ccc(F)cc2Cl)N=C(c2nccs2)N1 (racemic)
Ans. > 30 µM

Qu. Give me measured CC50, please, for this compound: CCOC(=O)C1=C(CN2CC(F)(F)C[C@H]2C#N)NC(c2nccs2)=NC1c1ccc(F)cc1Cl (stereo partly drawn)
Ans. > 30 µM

Qu. Dear colleague, please send me the reported CC50 for CCOC(=O)C1=C(CN2CC(F)(F)C[C@H]2C(=O)NS(C)(=O)=O)NC(c2nccs2)=NC1c1ccc(F)cc1Cl (stereo partly drawn) when you can.
Ans. > 30 µM

Qu. Please look at this compound and report its CC50: Cn1ccc(C2=C(CC(=O)O)NC(c3nccs3)=NC2c2ccc(F)cc2Cl)n1 (stereo not drawn)
Ans. 10 to 30 µM

Qu. Answer with the recorded CC50 of CC1=C(C(=O)N(C)S(C)(=O)=O)C(c2ccc(F)cc2Cl)N=C(c2nccs2)N1 (racemic) only.
Ans. > 30 µM

Qu. Output measured CC50 for this item: CC1=C(c2ncccn2)C(c2ccc(F)cc2Cl)N=C(c2nccs2)N1 (racemic)
Ans. > 30 µM

Qu. For the compound CC1=C(c2ccccn2)C(c2ccc(F)cc2Cl)N=C(c2nccs2)N1 (racemic) , give its reported CC50.
Ans. > 30 µM

Qu. Retrieve CC50 measured for CCOC(=O)[C@@H]1CC(F)(F)CC1CC1=C(C#N)C(c2ccc(F)cc2Cl)N=C(c2nccs2)N1 (stereo partly drawn) and print it.
Ans. > 30 µM
